Target: Gal(b1-4)GlcNAc(b1-3)Gal(b1-4)[Fuc(a1-3)]GlcNAc(b1-3)Gal(b1-4)[Fuc(a1-3)]GlcNAc
Test: glycan array binding signal (z-score within array); higher = stronger binding
Settings: glycan notation: IUPAC condensed, linker removed
Only a selection was taken, and the strongest signals are over-represented in it overall.
parameter.measured: glycan array binding signal (z-score)
Numbers only.

Worked set:
Ask: Tell me glycan array binding signal (z-score) reported for RfpC (Mycobacterium tuberculosum), O07747 (protein) MHHHHHHSSGRENLYFQGHMASKSAMAAGLVTASMSLSTAVAHAGPSPNWDAVAQCESGGNWAANTGNGKYGGLQFKPATWAAFGGVGNPAAASREQQIAVANRVLAEQGLDAWPTCGAASGLPIALWSKPAQGIKGS
Reply: -0.25

Ask: Tell me glycan array binding signal (z-score) reported for FaeGac (Escherichia coli) (protein) WMTGDFNGSVDIGGSITADDYRQKWEWKVGTGLNGFGNVLNDLTNGGTKLTITVTGNKPILLGRTKEAFATPVTGGVDGIPHIAFTDYEGASVVLRNPDGETNKKGLAYFVLPMKNAEGTKVGSVKVNASYAGVLGRGGVTSADGELLSLFADGLSSIFYGGLPRGSELSAGSAAAERTKLFGSLSRNDILGQIQRVNANITSLVDVAGSYRENMEYTDGTVVSAAYALGIANGQTIEATFNQAVTTSTQWSAPLNVAITYY
Reply: 0.771

For the next question, use this binder.
Ask: Tell me glycan array binding signal (z-score) reported for Galatrox (Botrops atrox), P0DM53 (protein) NNCPQDWLPMNGLCYKIFDELKAWKDAEMFCRKYKPGCHLASIILYGESPEWAEGHSEVWLGLWDKKKDFSWEWTDR
Reply: 3.31
